Recorded 2% Acetic Acid Eluate, A280 by entry
target of assay: fibrinogen (Homo sapiens, UniProt P02671+P02675+P02679)
Construct: purchased Sigma Chemical Co. (St. Louis, Mo.) and Chromogenix AB (Molndal, Sweden)
Sequence (P02671 20-644 isoform P02671-2 limits assumed): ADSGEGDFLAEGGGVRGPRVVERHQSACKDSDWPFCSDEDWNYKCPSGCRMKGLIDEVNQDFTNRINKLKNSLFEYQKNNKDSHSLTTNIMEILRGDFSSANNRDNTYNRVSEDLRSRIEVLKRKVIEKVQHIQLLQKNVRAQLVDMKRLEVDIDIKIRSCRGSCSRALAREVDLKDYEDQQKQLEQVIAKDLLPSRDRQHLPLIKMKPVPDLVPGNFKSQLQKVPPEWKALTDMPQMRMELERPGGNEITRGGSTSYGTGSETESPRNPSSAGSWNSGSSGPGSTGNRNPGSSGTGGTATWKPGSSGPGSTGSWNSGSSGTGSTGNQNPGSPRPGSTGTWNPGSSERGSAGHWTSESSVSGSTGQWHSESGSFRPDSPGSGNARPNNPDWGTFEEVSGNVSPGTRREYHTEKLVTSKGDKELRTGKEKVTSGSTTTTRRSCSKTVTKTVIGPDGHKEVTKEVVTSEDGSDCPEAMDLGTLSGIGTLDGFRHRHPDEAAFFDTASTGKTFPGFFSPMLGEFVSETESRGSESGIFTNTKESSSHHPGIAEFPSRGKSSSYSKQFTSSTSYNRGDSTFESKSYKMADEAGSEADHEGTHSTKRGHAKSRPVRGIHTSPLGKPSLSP
Sequence (P02675 31-491): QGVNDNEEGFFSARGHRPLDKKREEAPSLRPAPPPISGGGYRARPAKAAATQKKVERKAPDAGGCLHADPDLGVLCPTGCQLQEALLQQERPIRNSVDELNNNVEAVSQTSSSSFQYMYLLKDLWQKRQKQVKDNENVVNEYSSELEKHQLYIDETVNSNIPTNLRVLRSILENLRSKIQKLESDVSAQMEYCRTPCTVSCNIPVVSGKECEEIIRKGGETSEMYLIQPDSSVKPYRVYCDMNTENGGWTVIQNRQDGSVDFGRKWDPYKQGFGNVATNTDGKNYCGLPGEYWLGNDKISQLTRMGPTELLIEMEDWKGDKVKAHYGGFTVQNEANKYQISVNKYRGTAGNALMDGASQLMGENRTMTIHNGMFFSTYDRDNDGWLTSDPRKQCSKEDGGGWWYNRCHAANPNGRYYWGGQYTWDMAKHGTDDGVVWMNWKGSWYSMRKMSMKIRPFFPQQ
Sequence (P02679 27-453): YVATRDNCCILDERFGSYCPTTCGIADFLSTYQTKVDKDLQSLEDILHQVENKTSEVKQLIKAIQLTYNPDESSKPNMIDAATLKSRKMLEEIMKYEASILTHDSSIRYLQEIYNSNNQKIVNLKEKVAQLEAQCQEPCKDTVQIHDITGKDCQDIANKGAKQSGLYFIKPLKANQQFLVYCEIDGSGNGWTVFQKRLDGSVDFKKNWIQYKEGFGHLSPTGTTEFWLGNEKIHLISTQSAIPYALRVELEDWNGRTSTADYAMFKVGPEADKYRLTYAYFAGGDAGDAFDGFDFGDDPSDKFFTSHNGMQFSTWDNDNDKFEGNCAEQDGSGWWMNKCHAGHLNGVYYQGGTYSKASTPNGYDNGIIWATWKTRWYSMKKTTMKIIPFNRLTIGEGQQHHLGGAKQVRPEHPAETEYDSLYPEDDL
protocol details: Confirmatory binding assay in column chromatographic format: fibrinogen applied to peptide resins, NaCl wash and acid eluate quantified by A280
condition summary: 500 μg fibrinogen applied; peptide synthesized on A-Totda-Toyopearl; Table 2
No end group written: not given here.
quantity kind: 2% Acetic Acid Eluate, A280

substance="ALLVPL: peptide sequence ALLVPL synthesized on A-Totda-Toyopearl (not fully specified (C-terminus))" observed_result=0.09
substance="Phe-Ala-Leu-Val- Pro-Leu (FALVPL; not fully specified (C-terminus); printed as Phe-Ala-Leu-Val-Pro-Leu)" observed_result=1.35
substance="PALVPL: peptide sequence PALVPL synthesized on A-Totda-Toyopearl (not fully specified (C-terminus))" observed_result=0.06
substance="AALVPL: peptide sequence AALVPL synthesized on A-Totda-Toyopearl (not fully specified (C-terminus))" observed_result=0.09
